- System Name: UniProtKB P81908
- Sequence (P81908 whole entry): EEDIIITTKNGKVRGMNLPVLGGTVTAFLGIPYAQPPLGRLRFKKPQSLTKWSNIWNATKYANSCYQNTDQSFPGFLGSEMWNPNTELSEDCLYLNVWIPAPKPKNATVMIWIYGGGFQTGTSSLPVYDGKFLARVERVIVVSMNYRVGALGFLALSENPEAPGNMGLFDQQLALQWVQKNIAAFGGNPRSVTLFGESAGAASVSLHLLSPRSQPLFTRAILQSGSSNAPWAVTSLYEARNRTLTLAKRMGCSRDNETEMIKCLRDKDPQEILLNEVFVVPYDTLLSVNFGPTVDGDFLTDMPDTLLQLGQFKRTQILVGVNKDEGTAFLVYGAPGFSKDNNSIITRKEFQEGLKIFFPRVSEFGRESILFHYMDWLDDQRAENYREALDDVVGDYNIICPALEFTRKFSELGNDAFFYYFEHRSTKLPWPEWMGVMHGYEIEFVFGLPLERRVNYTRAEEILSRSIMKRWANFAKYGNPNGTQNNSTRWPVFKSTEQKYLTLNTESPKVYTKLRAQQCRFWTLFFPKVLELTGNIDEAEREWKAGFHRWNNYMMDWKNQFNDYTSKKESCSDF
- Test Name: Inhibition of equine serum BChE using S-butyrylthiocholine chloride as substrate preincubated for 15 mins by spectrophotometer analysis
pIC50: −log10 of the molar value.
Tag: 1 (yes) if measured pIC50 is not below 5, 0 (no) if it is.

C=CC(=O)N1C/C(=C\c2ccc(C)cc2)C(=O)C2(C1)C(c1ccc(C)cc1)C(c1ccccc1)NC21C(=O)Nc2ccccc21 (racemic) : 1 (yes)

Query: Identify whether the reported pIC50 of the following compound is 5 or greater: Cc1ccc(/C=C2\CN(C(=O)C3CC(c4ccccc4)NC34C(=O)Nc3ccccc34)CC3(C2=O)C(c2ccc(C)cc2)C(c2ccccc2)NC32C(=O)Nc3ccccc32)cc1 (racemic)
Result: 0 (no)

Query: Okay, and O=C(C1CC(c2ccccc2)NC12C(=O)Nc1ccccc12)N1C/C(=C\c2ccccc2)C(=O)C2(C1)C(c1ccccc1)C(c1ccccc1)NC21C(=O)Nc2ccccc21 (racemic) ?
Result: 0 (no)

Query: Next up: C=CC(=O)N1C/C(=C\c2ccccc2C)C(=O)C2(C1)C(c1ccccc1C)C(c1ccccc1)NC21C(=O)Nc2ccccc21 (racemic)
Result: 0 (no)

Query: What would you report for COc1ccccc1/C=C1\CN(C(=O)C2CC(c3ccccc3)NC23C(=O)Nc2ccccc23)CC2(C1=O)C(c1ccccc1OC)C(c1ccccc1)NC21C(=O)Nc2ccccc21 (racemic) ?
Result: 0 (no)

Query: Lookup O=C(C1CC(c2ccccc2)NC12C(=O)Nc1ccccc12)N1C/C(=C\c2cccc3ccccc23)C(=O)C2(C1)C(c1cccc3ccccc13)C(c1ccccc1)NC21C(=O)Nc2ccccc21 (racemic)
Result: 0 (no)
